test: AUC (0 to t) in Sprague-Dawley rat at 2 mg/kg, iv; type: ADME, organism-based; parameters: dose 2 mg/kg; details: in vivo
Property: AUC(0-t) (ng·h/mL)
Record the value in ng·h/mL, omitting the unit from your answer.

What value of AUC(0-t) has been reported for the following compound? O=S(=O)(Nc1cc(-c2cnc3[nH]ncc3c2)cnc1Cl)c1ccccc1
10200

---

tested on: KG-1; assay: Antiproliferative activity against human KG-1 cells assessed as reduction in cell viability measured after 48 hrs by CCK8 assay; format: functional, cell-based; settings: KG-1, 48 h
Property: IC50 (µM)
Reply numerically in µM, unit not repeated.

Return IC50 measured with KG-1 given this compound: O=S(=O)(Nc1cc(-c2cnc3[nH]ncc3c2)cnc1Cl)c1ccccc1
5.82

meta.source: ChEMBL document CHEMBL4840313
